- ASSAYED_SYSTEM: GSK3β kinase (Homo sapiens)
- Sequence (P49841 whole entry): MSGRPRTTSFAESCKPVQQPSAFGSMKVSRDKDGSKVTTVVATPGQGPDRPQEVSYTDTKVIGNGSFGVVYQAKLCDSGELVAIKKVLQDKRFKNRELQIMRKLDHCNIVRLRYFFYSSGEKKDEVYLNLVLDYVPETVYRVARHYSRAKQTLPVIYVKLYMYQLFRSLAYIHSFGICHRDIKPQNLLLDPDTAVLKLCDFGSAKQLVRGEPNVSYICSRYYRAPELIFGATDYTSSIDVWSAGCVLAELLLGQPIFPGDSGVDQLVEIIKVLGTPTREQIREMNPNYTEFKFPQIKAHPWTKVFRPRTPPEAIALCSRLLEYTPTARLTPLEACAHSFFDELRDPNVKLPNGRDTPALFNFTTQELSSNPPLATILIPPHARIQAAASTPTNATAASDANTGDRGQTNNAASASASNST
- EXPERIMENT_SUMMARY: GSK3β kinase activity (Ser/Thr 09 peptide Z-lyte FRET assay)
- Format: biochemical
- CONDITION_PARAMETERS: recombinant kinase, 46 μM ATP, one hour at room temperature; read-out: EC50
OUTCOME_MEASURE: log10(EC50) (log10 of the value in nM)

| MOLECULE | log10(EC50) |
| --- | --- |
| CN1CCCN(CC(=O)Nc2cc3cc(-c4cnn(C)c4)cnc3cn2)CC1 [Compound 2826] | 3.73 |
| CC(F)(F)CN1CCC(C(=O)Nc2cc3nc(-c4cnco4)ccc3cn2)CC1 [Compound 540] | 2.81 |
| Cn1ncc(-c2ccc3cnc(NC(=O)C4CC5(C4)CN(CCF)C5)cc3n2)c1CN1CCCCC1 [Compound 280] | 2.53 |
| Cc1ncc(C(=O)Nc2cc3cc(-c4cnc(C)n4C)ncc3cn2)s1 [Compound 4074] | 2.62 |
| Cc1ncc(C(=O)Nc2cc3nc(-c4cnc(C)n4C)ccc3cn2)s1 [Compound 447] | 1.68 |
| Cn1cncc1-c1cnc2cnc(NC(=O)C3CCC(F)(F)CC3)cc2c1 [Compound 3120] | 3.12 |
| O=C(Nc1cc2cc(-c3cnco3)ncc2cn1)C1CCN(C(=O)CN2CCCC2)CC1 [Compound 4159] | 1.86 |
